Taken from PubChem BioAssay (NCI).

# Test system: IGROV1 ovarian
# test: NCI tumour cell line growth inhibition, 48 h
Here the recorded TGI is given for each entry.

Supply measured TGI of `COc1ccc(N(C(=O)NCCO)c2ccccc2)cc1` in your reply.
> 100 µM

Others:
Please look at this compound and report its TGI: `Cc1ccc(C)c2c(N=Nc3ccccc3[N+](=O)[O-])c(O)[nH]c12`
> 100 µM

Please supply the value of reported TGI for the item `CN=C(NC)N(C)c1nc(=[N+](C)C)ss1`
> 100 µM

Provide one value: measured TGI of `Oc1c(CNCCNCc2cc(Cl)cc(Cc3ccccc3)c2O)cc(Cl)cc1Cc1ccccc1`
16.3 µM

Specify measured TGI for `CC[C@H]1C=CCC[C@@]2(C[C@@H]3CC[C@@H]4[C@H](C(=O)OCCCCCCCCCCCCCCCC(=O)N(CCCNC(C)=O)C[C@H](CCNC(C)=O)OC(C)=O)[C@]5(CCC[C@@H](C)O5)NC(=[N+]34)N2)O1` .
1.9 µM

Please indicate TGI recorded for `O=C(Sc1sc(=S)sc1SC(=O)c1ccccc1)c1ccccc1`
> 100 µM
